These measurements were taken from PubChem BioAssay AID1159580.

# ASSAY_REMARKS: chemical genetic growth profiling, strain panel (AID 1159580);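 further: tested at 20 µM; growth read once vehicle control cultures reached saturation at 30 °C; 1 = growth at the plate median or of vehicle wells; lower values mean less growth of the strain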
# REPORTED_CONDITIONS: S. cerevisiae deletion strains, growth OD, locus YHR094C, strain hxt1, stronger effect = lower value
About 2,000 (36%) of roughly 5,500 compounds were called active. Inconclusive results (about 18%) are left out. The list shows a part of the results.
The following molecules are shown together with reported normalized growth values.
MEASUREMENT_NAME: normalized growth

1) CN1C2C[C@H](OC(=O)[C@H](CO)c3ccccc3)C[C@H]1[C@@H](O)C2    0.992
2) CCC(C)C(=O)O[C@@H]1C[C@@]2(C)[C@H](c3ccoc3)OC(=O)CC23OC2(C)O[C@]14[C@]1(C)[C@@H](CC(=O)OC)C5(C)CC1(O)[C@](O)(C5OC(=O)C1(C)OC1C)[C@@H](OC(C)=O)[C@]34O2 (some centres undefined)    1.02
3) Clc1ccc(C(OCCN2CCCCC2)c2ccccc2)cc1 (centres undefined)    0.997
4) Oc1cc(O)c2c(c1)O[C@H](c1cc(O)c(O)c(O)c1)[C@H](O)C2    0.983
5) Oc1ccc2c(c1)O[C@H](c1ccc(O)c(O)c1)[C@@H](O)C2    0.99
6) O=C(O)CCCc1ccc(N(CCCl)CCCl)cc1    0.983
7) COC(=O)CC1C2(C)CC34OC5(C)OC6(C7/C(=C(/O)C(C)C)C(=O)OC(c8ccoc8)C7(C)C(OC(=O)C(C)C)C(OC)C6(O5)C13C)C(OC)C4(OC)C2OC(C)=O (centres undefined)    0.989
8) COC(=O)C[C@H]1C2(C)CC34OC5(C)O[C@@]6([C@H](OC(C)=O)C(OC(C)=O)[C@]7(C)C(/C(=C(/O)C(C)C)C(=O)O[C@H]7c7ccoc7)[C@@]6(O5)[C@H](OC(C)=O)[C@@]3(O)C2OC(=O)C(C)C)[C@]14C (some centres undefined)    0.998
9) CCC[C@H](N[C@@H](C)C(=O)N1[C@H](C(=O)O)C[C@@H]2CCCC[C@@H]21)C(=O)OCC    1.02
10) CCCCCCC(C)OC(=O)COc1cc(Cl)c(Cl)cc1Cl (centres undefined)    0.983
11) COC(=O)/C=C/C(C)=C/C=C/C(C)=C/C=C/C=C(C)/C=C/C=C(C)/C=C/C(=O)O    0.994
12) CN(C)CCOC(c1ccc(Cl)cc1)c1ccccn1 (centres undefined)    1.01
13) NS(=O)(=O)c1cc2c(cc1Cl)NC=NS2(=O)=O    0.995
14) Cc1ccccc1C(OCCN(C)C)c1ccccc1 (centres undefined)    1
15) Oc1cc(O)c2c(c1)OC(c1cc(O)c(O)c(O)c1)C(O)C2c1c(O)cc(O)c2c1OC(c1cc(O)c(O)c(O)c1)C(O)C2c1c(O)cc(O)c2c1OC(c1cc(O)c(O)c(O)c1)C(O)C2 (centres undefined)    1.02
16) CN1CCC(OC(c2ccccc2)c2ccccc2)CC1    0.998
17) CN1C2CCC1CC(OC(c1ccccc1)c1ccccc1)C2 (centres undefined)    0.977
18) COc1ccc2c(c1)OC1(O)COc3cc(OC)c(OC)cc3C1=C2 (centres undefined)    0.989
19) C[C@@H]1O[C@@H](O[C@H]2[C@H](Oc3cc(O)c4c(=O)cc(-c5ccc(O)cc5)oc4c3)O[C@H](CO)[C@@H](O)[C@@H]2O)[C@H](O)[C@H](O)[C@H]1O    0.99
20) N[C@@H](Cc1ccc(N(CCCl)CCCl)cc1)C(=O)O    0.971
21) Cc1[nH]c2ccccc2c1CN(C)C    0.989
22) C=C[C@@](C)(O)CCC1C(=C)C[C@H](OC(C)=O)C2C(C)(C)CCCC12C (some centres undefined)    0.985
23) COc1cc2nc(N(C)CCCNC(=O)C3CCCO3)nc(N)c2cc1OC (centres undefined)    1
24) COc1ccc(C(CN(C)C)C2(O)CCCCC2)cc1 (centres undefined)    0.997
25) COc1ccc(C(c2ccc(OC)cc2)C(Cl)(Cl)Cl)cc1    0.994
26) Oc1cc(O)c2c(c1)O[C@H](c1ccc(O)c(O)c1)[C@H](O)C2    0.992
27) CCC(C)C(=O)OC1CC2(C)C(c3ccoc3)OC(=O)CC23OC2(C)OC34C(OC(=O)C(C)C)C3(O)C(OC(=O)C5(C)OC5C)C5(C)CC3(O)C(C)(C5C(=O)OC)C14O2 (centres undefined)    1.01
28) c1ccc2c(c1)CCCC2C1=NCCN1 (centres undefined)    1
29) O=C(O)CCCc1ccccc1    0.995
